Target: the molecule itself
Experiment: FRET or BRET; homo-FRET (steady-state fluorescence anisotropy of EGFP, time-domain, TCSPC) at the plasma membrane of living transfected Jurkat cells on PLL-coated slides, 37 °C; semi-quantitative, calibrated by monomeric LAT and dimeric CD8α
Reported steady-state anisotropy, mean values are given for each entry in this list.
Lab note: record just the number, no unit beside it.

A selection of reference data follows.
Note to self: steady-state anisotropy, mean recorded for EGFP-Nkrp1c1 (receptor, mouse (C57BL/6), UniProt P27814 1-223, looked up, last residue S223; Vector pXJ41; also called c1 isoform; source: Jurkat, transiently transfected, living cells; COS-7, transiently transfected, in lysate; not shown: EGFP (with spacer GSGGGS), N-terminal, kept) MDTASIYLGLKPPRTLGAWHESPPSLPPDACRCPRSHRLALKLSCAGLILLVLTLIGMSVLVRVLVQKPSREKCCVFIQENLNKTTDCSVNLECPQDWLLHRDKCFHVSQVSNTWEEGQADCGRKGATLLLIQDQEELRFLLDSIKEKYNSFWIGLRFTLPDMNWKWINGTTFNSDVLKITGVTENGSCASILGDKVTPESCASDNRWICQKELNHETPSNDS was 0.244

Note to self: steady-state anisotropy, mean recorded for EGFP-Nkrp1f_C74S (receptor, mouse (C57BL/6), UniProt Q8VD98 1-217, looked up, Two extra C-terminal residues (Thr-Gly) possible as for m8 (surmise from the primer); also called C74S mutant of Nkrp1f; source: Jurkat, transiently transfected, living cells; COS-7, transiently transfected, in lysate; not shown: EGFP (with spacer GSGGGS), N-terminal, kept) MDTSKVHGNVKPFRCPGYKQASSPSFSPDACRCPHWHHLALKSGCAGLILLLLSLIGLSVLVRFLVQKPPIEKSSVAAQENRTELTGRSAILECPRYWHPHWNKCLFVSQISRPWAEGRDACSMEDAILLLIENKEELRFVQNLIKGKEQLFFIGLKYVQKEKIWKWIDGSILNPNLLRITGKDKENSCAIISHTEVFSDSCSSDNHWICQKTLIHV was 0.281

Here's the next entry for you.
Note to self: steady-state anisotropy, mean recorded for EGFP-Nkrp1a (receptor, mouse (C57BL/6), UniProt P27811 1-227, looked up, last residue H227; Vector pXJ41; also called Nkrp1a1; a1 isoform; source: Jurkat, transiently transfected, living cells; COS-7, transiently transfected, in lysate; not shown: EGFP (with spacer GSGGGS), N-terminal, kept) MDTARVYFGLKPPRTPGAWHESPPSLPPDACRCPRSHRLALKLSCAGLILLVVTLIGMSVLVRVLIQKPSIEKCYVLIQENLNKTTDCSAKLECPQDWLSHRDKCFQVSHVSNTWEEGLVDCDGKGATLMLIQDQEELRFLLDSIKEKYNSFWIGLRYTLPDMNWKWINGSTLNSDVLKITGDTENDSCAAISGDKVTFESCNSDNRWICQKELYHETLSNYVGYGH was 0.269
